Every entry's value here was drawn from patent US8815857B2.

Biological target: Recombinant human soluble guanylate cyclase (sGC), alpha 1 / beta 1 subunits, heme-free (Homo sapiens, UniProt Q02108+Q02153)
Construct: histidine tag (C); made in house; host or cells: Sf9 insect cells (baculovirus coinfection)
Sequence (Q02108 whole entry partner): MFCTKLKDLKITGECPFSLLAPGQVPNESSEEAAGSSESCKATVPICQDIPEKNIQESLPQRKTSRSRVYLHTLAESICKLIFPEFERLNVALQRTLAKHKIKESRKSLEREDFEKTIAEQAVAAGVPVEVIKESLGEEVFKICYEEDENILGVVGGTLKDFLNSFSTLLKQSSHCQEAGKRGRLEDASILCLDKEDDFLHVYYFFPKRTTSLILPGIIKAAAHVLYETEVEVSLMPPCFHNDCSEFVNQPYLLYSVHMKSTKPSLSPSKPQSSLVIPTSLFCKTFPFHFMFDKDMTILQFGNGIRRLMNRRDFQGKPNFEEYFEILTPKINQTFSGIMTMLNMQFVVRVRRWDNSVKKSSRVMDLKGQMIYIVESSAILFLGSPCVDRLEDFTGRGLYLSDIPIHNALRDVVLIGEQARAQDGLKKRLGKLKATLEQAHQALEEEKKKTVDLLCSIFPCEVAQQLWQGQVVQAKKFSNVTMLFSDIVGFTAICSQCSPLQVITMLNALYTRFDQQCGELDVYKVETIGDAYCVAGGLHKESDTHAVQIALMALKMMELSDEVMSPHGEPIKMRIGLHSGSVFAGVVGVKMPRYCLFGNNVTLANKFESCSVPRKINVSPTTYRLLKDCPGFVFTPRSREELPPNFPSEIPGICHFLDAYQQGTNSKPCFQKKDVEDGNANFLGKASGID
Sequence (Q02153 whole entry): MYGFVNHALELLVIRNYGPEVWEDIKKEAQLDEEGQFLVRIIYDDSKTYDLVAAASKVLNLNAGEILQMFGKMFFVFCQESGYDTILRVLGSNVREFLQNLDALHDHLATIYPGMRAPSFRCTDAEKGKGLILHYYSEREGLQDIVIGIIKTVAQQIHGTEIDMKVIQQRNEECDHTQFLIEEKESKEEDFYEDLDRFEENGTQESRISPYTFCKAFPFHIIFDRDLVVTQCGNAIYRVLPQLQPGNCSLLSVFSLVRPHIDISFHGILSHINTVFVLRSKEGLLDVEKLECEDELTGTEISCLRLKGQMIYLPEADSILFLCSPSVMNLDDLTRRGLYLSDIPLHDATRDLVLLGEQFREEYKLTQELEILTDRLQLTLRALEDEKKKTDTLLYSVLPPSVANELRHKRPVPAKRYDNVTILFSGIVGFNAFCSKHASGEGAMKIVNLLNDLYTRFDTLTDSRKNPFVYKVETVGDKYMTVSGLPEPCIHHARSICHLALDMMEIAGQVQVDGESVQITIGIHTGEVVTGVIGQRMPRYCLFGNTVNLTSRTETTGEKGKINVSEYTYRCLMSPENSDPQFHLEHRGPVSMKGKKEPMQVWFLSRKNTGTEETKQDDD
Assay: Molecular assay: cGMP formation by heme-free recombinant sGC (CisBio cGMP detection kit)
Assay type: biochemical
Conditions: 300 pM heme-free sGC, 37° C., 60 min, cGMP readout; read-out: EC50 nM, Activity of Compounds in Molecular Assay
measured-property: EC50 (nM)

The following molecules have reported results that may help.
QUERY: Read off the recorded EC50 for Cc1cc(CN2CCOCC2)ccc1COc1ccccc1-c1csc(C2=CCC(C(=O)O)CC2)n1 (centres unmarked)
RESULT: 2400

QUERY: Return reported EC50. Input molecule: "Cc1ccc(OCc2ccc(CN(C)CC3CCOCC3)cc2C)c(-c2csc(N3CCC(C(=O)O)CC3)n2)c1"
RESULT: 550

1 = Cc1cc(CN2CCOCC2)ccc1COc1ccc(Cl)cc1-c1csc(C2=CCC(C(=O)O)CC2)n1 (centres unmarked)
2 = Cc1cc(CN(C)C2CCS(=O)(=O)C2)ccc1COc1c(C)cccc1-c1csc(N2CCC(C(=O)O)CC2)n1 (centres unmarked)
3 = Cc1cc(CN2CCOCC2)ccc1COc1ccc(Cl)cc1-c1csc(N2CCC(C(=O)O)CC2)n1
QUERY: I would appreciate it if you could sort these 3 molecules by EC50, starting from the smallest number. Note for the reader: the ranking is given by listing the labels in the order requested.
RESULT: 2, 3, 1
(2: 17 nM, 3: 110 nM, 1: 830 nM)

---

Entries and their solubility values follow.
Assay: Assessment of solubility: HT solubility in pION buffer, UV spectrophotometry
Conditions: pION system solution buffer, pH 4.5, pH 4.5, aqueous buffer, kinetic from dmso stock, Solubility (pH 4.5), pH 4.5 buffer, 16-19 h incubation, 1.0% DMSO

Worked examples follow.
QUERY: State its solubility for this compound: Cc1ccc(OCc2ccc(CN3CCN4CCCC4C3)cc2C)c(-c2csc(N3CCC(C(=O)O)CC3)n2)c1 (stereo not drawn) [Compound 350]
RESULT: > 56 µg/mL

QUERY: Give solubility for the following compound: Cc1ccc(OCc2ccc(CN3CCOCC3)cc2C)c(-c2csc(N3CC(C(=O)O)C3)n2)c1 [Compound 215]
RESULT: > 60 µg/mL

Now take the following compound into account.
QUERY: Give recorded solubility. CCc1cc(C(=O)N2CCOCC2)ccc1COc1ccc(C)cc1-c1csc(N2C[C@H]3CC[C@@H](C2)[C@H]3C(=O)O)n1 [Compound 288]
RESULT: < 0.1 µg/mL

---

Listed molecules paired with reported solubility
Assay: Assessment of solubility: HT solubility in pION buffer, UV spectrophotometry
Settings: pION system solution buffer, pH 4.5, pH 4.5, aqueous buffer, kinetic from dmso stock, Solubility (pH 4.5), pH 4.5 buffer, 16-19 h incubation, 1.0% DMSO

Known results for molecules:
QUERY: Provide measured solubility value, entry: "Cc1ccc(OCc2ccc(C(=O)N3CCCCC3)cc2C)c(-c2csc(N3C[C@H]4CC[C@@H](C3)[C@@]4(F)C(=O)O)n2)c1"
RESULT: < 0.1 µg/mL

QUERY: Report solubility for "COCCN(C)Cc1ccc(COc2ccc(C)cc2-c2csc(N3CCC(C(=O)O)CC3)n2)c(C#N)c1"
RESULT: > 64 µg/mL

QUERY: Name the recorded solubility of the item "Cc1cc(CN2CCCCC2)ccc1COc1ccc(C#N)cc1-c1csc(N2CCC(C(=O)O)CC2)n1" in your answer.
RESULT: > 57 µg/mL

Further cases:
QUERY: Note down solubility recorded for "Cc1ccc(OCc2ccc(C(=O)N(C)Cc3ccnn3C)cc2C)c(-c2csc(N3C[C@H]4CC[C@@H](C3)[C@H]4C(=O)O)n2)c1"
RESULT: < 0.1 µg/mL
